Test: Plasma AMG 232 pharmacokinetics (HPLC-MS, non-compartmental analysis)
Format: in vivo, human
Condition context: human, plasma, oral, 30 mg, Day 7, dose escalation, 30 mg (n = 3); read-out: AUC24h, mean (SD)
Measurement type: AUC(0-t)

[[record]]
structure_smiles = "CC(C)[C@@H](CS(=O)(=O)C(C)C)N1C(=O)[C@@](C)(CC(=O)O)C[C@H](c2cccc(Cl)c2)[C@H]1c1ccc(Cl)cc1"
readout_value = "2830 ng·h/mL"


====

Test: Plasma AMG 232 pharmacokinetics (HPLC-MS, non-compartmental analysis)
Format: in vivo, human
Condition context: human, plasma, oral, 30 mg, Day 1, dose escalation, 30 mg (n = 3); read-out: tmax, median (range)
Measurement type: Tmax

[[record]]
structure_smiles = "CC(C)[C@@H](CS(=O)(=O)C(C)C)N1C(=O)[C@@](C)(CC(=O)O)C[C@H](c2cccc(Cl)c2)[C@H]1c1ccc(Cl)cc1"
readout_value = "3 h"


Values from paper PMC7211202
